These entries and their values trace back to patent US20220306762A1.

Target: T1, murine CD38 on transiently transfected Expi293 cells (Origene MC208001) (murine, UniProt P56528 1-304)
T1 construct: whole, on cells; also called Murine (FACs)
T1 sequence (looked up): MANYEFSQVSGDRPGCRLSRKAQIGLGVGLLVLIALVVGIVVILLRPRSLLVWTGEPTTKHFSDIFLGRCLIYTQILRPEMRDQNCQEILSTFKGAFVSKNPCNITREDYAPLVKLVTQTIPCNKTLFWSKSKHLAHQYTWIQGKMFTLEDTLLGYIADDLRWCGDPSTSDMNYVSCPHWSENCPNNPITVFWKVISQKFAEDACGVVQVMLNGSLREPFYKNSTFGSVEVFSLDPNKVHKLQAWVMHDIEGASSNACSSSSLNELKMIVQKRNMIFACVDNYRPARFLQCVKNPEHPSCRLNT
Experiment: flow cytometry, transfected Expi293 cells;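 further: antibody binding to Expi293 cells transiently expressing human or murine CD38, antibodies applied at 10 ug/ml for 60 min on ice, read by flow cytometry as percent gated cells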
binders and their reported FACs 10 ug/ml (percent gated)
value-kind: FACs 10 ug/ml (percent gated) (%)

1. 40596p1.E4 (scFv, V domains shown, tested as scFv-Fc supernatant) VH: EVQLLESGGGLVQPGGSLRLSCAASGFDFSGSAMSWVRQAPGKGLEYVAGLGWSGSFIYYADSVKGRSTISRDNSKNTLYLQLNSLRAEDTAVYYCARNPGFGEMDVWGQGTTVTVSS VL: EIVLTQSPGSLSLSPGERATLSCRASQTVGSNLAWYQQKPGQAPRLLIYGASTRATDIPDRFSGSGSGTEFTLTISSLQSEDFAVYYCQQYNSWPPLTFGGGTKVEIK	34
2. 40566p1.F1 (scFv, V domains shown, tested as scFv-Fc supernatant; also called 40566p1.Fl) VH: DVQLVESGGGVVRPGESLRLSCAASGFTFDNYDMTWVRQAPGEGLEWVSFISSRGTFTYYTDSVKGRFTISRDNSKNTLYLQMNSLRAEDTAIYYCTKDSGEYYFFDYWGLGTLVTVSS VL: ETVMTQSPATLSVSPGERATFSCRASQSVNGKLAWYQQKPGQAPRLLIYDASRRATGIPDRFSGSGSGTEFTLTISSLQSEDFAVYYCQQYYDWPPLTFGGGTKVEIK	76
